Reference source for all entries: paper PMC4416907

Target: human RARβ2 (Homo sapiens, UniProt P10826)
Sequence (P10826 1-448 isoform P10826-2): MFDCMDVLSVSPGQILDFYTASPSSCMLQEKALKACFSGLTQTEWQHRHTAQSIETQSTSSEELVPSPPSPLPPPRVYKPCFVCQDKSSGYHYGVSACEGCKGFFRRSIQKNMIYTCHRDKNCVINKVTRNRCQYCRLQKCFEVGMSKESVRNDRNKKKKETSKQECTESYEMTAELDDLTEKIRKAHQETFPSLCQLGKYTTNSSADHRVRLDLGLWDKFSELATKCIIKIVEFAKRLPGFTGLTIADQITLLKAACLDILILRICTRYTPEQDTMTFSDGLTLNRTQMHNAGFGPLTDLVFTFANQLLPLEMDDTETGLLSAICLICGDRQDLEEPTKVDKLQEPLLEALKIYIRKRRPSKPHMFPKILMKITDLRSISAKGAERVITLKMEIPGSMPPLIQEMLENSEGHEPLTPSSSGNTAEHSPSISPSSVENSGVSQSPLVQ
Experiment: Transient transactivation reporter assay, (RARE)3x-tk-luciferase in HeLa cells, agonist mode
Settings: dose-response 10^–10 to 10^–6 M, read-out: EC50 transactivation for RARβ
pEC50: −log10 of the molar value.
ENDPOINT NAME: pEC50

The recorded pEC50 for entry O=C(O)c1ccc(NC(=O)c2ccc3cccc(-c4ccccc4)c3c2)cc1 [BMS948] equals ~7.00
